target.entity: T1, yeast β'-COP 1-304 (N-terminal WD-repeat domain), untagged, wild type (yeast (S. cerevisiae), UniProt P41811 1-304)
T1 construct: also called β'-COP N-terminal WD-repeat domain
T1 sequence (looked up): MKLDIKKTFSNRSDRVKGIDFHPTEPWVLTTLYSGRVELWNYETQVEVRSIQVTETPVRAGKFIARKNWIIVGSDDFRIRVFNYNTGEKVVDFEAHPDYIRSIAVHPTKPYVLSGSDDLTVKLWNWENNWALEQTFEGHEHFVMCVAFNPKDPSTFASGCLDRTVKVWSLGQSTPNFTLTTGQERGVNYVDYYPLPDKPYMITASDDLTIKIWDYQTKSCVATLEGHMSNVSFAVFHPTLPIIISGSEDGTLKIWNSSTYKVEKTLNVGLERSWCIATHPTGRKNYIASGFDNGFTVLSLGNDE
procedure.text: ITC; Microcal VP-ITC, 10°C; peptide in the syringe at ten times the molar concentration of the β'-COP construct in the cell; 50 mM HEPES (pH 7.4), 100 mM NaCl
particulars: both partners purified
No end group written: not given here.
quantity.measured: Kd

binder	Kd
CTFKKTN-OH [Wbp1 KKTN motif peptide used for ITC]	~85 µM
RQEIISTKLL-OH [Emp47 KxKxx peptide without the -5 lysine (STKLL)]	~160 µM

Next:
[in] Retrieve Kd measured for RQEIIKTKLL (also called KTKLL motif; source: peptide) [KxKxx motif peptide from wild-type yeast Emp47 (RQEIIKTKLL)] and print it.
[out] 6.8 µM
